Cited source: patent US12497405B2

Quick reference for pIC50 among some compounds
target_desc: varicella zoster virus DNA polymerase (Varicella-zoster virus (strain Dumas) (HHV-3) (Human herpesvirus 3), UniProt P09252)
protocol_details: VZV polymerase assay (AlphaLISA)
assay_conditions: VZV polymerase 0.4 nM, 30 min pre-incubation, 60 minute at 37° C.
pIC50: −log10 of the molar value.
parameter_measured: pIC50

> print(dat)
                                    compound  parameter.measured  measured.result
 1  Cc1nc2cc(-c3cnco3)c(O[C@H]3CCN4C(=O)OC[C@@H]4C3)cc2c(=O)n1Cc1ccc(Cl)cc1               pIC50             9.36
 2  CC(c1ccc(Cl)cc1)n1ccc2ncc(O[C@H]3CCN4C(=O)OC[C@@H]4C3)cc2c1=O (single isomer, unassigned)               pIC50             6.80
 3  C[C@@H]1CN(C)CCN1c1cc2c(=O)n(Cc3ccc(Cl)cc3)cnc2cc1-c1cnn(C(F)F)c1               pIC50             6.37
 4  Cc1nc2cc(-c3ccn(C(F)F)n3)c(O[C@H]3CCN4C(=O)OC[C@@H]4C3)cc2c(=O)n1Cc1ccc(C#N)cc1               pIC50             8.60
 5  O=C1OC[C@@H]2C[C@@H](Oc3cc4c(=O)n(Cc5ccc(Cl)cc5)ccc4cn3)CCN12               pIC50             7.36
 6  O=C1OC[C@@H]2C[C@@H](Oc3ccc4c(CO)cn(Cc5ccc(Cl)cc5)c(=O)c4c3)CCN12               pIC50             7.89
 7  COc1ccc(-c2cc3ncn(Cc4ccc(Cl)cc4)c(=O)c3cc2O[C@H]2CCN3C(=O)OC[C@@H]3C2)cn1               pIC50             7.37
 8  CC(C)(N)Cc1cc2ccn(Cc3ccc(Cl)cc3)c(=O)c2cc1O[C@H]1CCN2C(=O)OC[C@@H]2C1               pIC50             7.48
 9  O=C1OC[C@@H]2C[C@@H](Oc3cc4c(=O)n(Cc5ccc(Cl)cc5)ccc4cc3-c3cnn(C(F)F)c3)CCN12               pIC50             8.23
10  Cc1nc2cc(-c3cn4c(n3)CN(C)CC4)c(O[C@H]3CCN4C(=O)OC[C@@H]4C3)cc2c(=O)n1Cc1ccc(C#N)cc1               pIC50             9.10
11  O=C1OC[C@@H]2C[C@@H](Oc3cnc4ccn(Cc5ccc(Cl)cc5)c(=O)c4c3)CCN12               pIC50             7.26
12  COc1ccc(-c2cc3nc(C)n(Cc4ccc(Cl)cc4)c(=O)c3cc2O[C@H]2CCN3C(=O)OC[C@@H]3C2)nn1               pIC50             7.85
13  COc1nc2cc(-c3cnco3)c(O[C@H]3CCN4C(=O)OC[C@@H]4C3)cc2c(=O)n1Cc1ccc(C#N)cc1               pIC50             9.36
14  Cc1ncc(-c2cc3nc(C)n(Cc4ccc(Cl)cc4)c(=O)c3cc2O[C@H]2CCN3C(=O)OC[C@@H]3C2)cn1               pIC50             7.80
15  O=C1OC[C@@H]2C[C@@H](Oc3cc(CO)c4ncn(Cc5ccc(Cl)cc5)c(=O)c4c3)CCN12               pIC50             7.70
16  Cc1nc2cc(C3CC(O)C3)c(O[C@H]3CCN4C(=O)OC[C@@H]4C3)cc2c(=O)n1Cc1ccc(Cl)cc1 (single isomer, unassigned) [Example 61]               pIC50             7.96
17  CC(O)Cc1nc2ccn(Cc3ccc(Cl)cc3)c(=O)c2cc1O[C@H]1CCN2C(=O)OC[C@@H]2C1 (single isomer, unassigned)               pIC50             7.89
18  Cc1nc2cc(-c3cc(C(F)(F)F)[nH]n3)c(O[C@H]3CCN4C(=O)OC[C@@H]4C3)cc2c(=O)n1Cc1ccc(C#N)cc1               pIC50             7.96
19  Cc1nc2ccc(O[C@H]3CCN4C(=O)OC[C@@H]4C3)cc2c(=O)n1Cc1ccc(C#N)cc1               pIC50             7.54
20  COc1cnc(-c2cc3nc(C)n(Cc4ccc(Cl)cc4)c(=O)c3cc2O[C@H]2CCN3C(=O)OC[C@@H]3C2)nc1               pIC50             7.60
21  O=C1OC[C@@H]2C[C@@H](Oc3cnc4ncn(Cc5ccc(Cl)cc5)c(=O)c4c3)CCN12               pIC50             7.22
22  Cc1nc2cc(-c3cn4c(n3)CNCC4)c(O[C@H]3CCN4C(=O)OC[C@@H]4C3)cc2c(=O)n1Cc1ccc(C#N)cc1               pIC50             8.28
23  Cc1nc2cc(C3CC(C)(O)C3)c(O[C@H]3CCN4C(=O)OC[C@@H]4C3)cc2c(=O)n1Cc1ccc(C#N)cc1 (stereo partly drawn)               pIC50             8.19
24  Cc1nc2cc(-c3cnn(C)c3)c(O[C@H]3CCN4C(=O)OC[C@@H]4C3)cc2c(=O)n1Cc1ccc(Cl)cc1               pIC50             9.36
25  O=C1OC[C@@H]2C[C@@H](Oc3cc4c(=O)n(Cc5ccc(Cl)cc5)ccc4nc3-c3cnco3)CCN12               pIC50             9.48
26  Cc1nc2cc(-c3cnn(C(F)F)c3)c(O[C@H]3CCN4C(=O)OC[C@@H]4C3)cc2c(=O)n1Cc1ccc(Cl)cc1               pIC50             8.51
27  Cc1nc2cc(-c3cn(C(F)F)cn3)c(O[C@H]3CCN4C(=O)OC[C@@H]4C3)cc2c(=O)n1Cc1ccc(Cl)cc1               pIC50             8.15
